# System: INS-1E rat beta cells, no cytokines, CellTiter-Glo ATP, 48 h
# procedure-details: cytokine-free beta-cell viability effect – INS-1E rat cells, ATP luminescence, cherry pick, counter-screen for beta-cell apoptosis protection project, dose response (AID 463229)
# AC50 values compiled below

Check out these entries, answers already filled in.
>>> value_measured("O=C(NCc1cccnc1)/C(=C\\c1ccc(-c2cccc(Cl)c2)o1)S(=O)(=O)c1ccccc1")
"6.78 µM"
>>> value_measured("O=[N+]([O-])c1ccc(N=Nc2c(Cl)cc(O)cc2Cl)cc1")
"2.08 µM"
>>> value_measured("COc1cc2c(cc1OC)[C@@H]1C(=O)c3ccc4c(c3O[C@@H]1CO2)C[C@H](C(C)C)O4")
"< 0.195 µM"
>>> value_measured("C#CCOCCOCCOCCNc1nc(N2CCN(C(=O)CCCCCCCCCCNC(=O)[C@H]([C@@H](C)CC)n3cc(CCCCCN)nn3)CC2)nc(N2CCN(C(=O)CCCCCCCCCCNC(=O)[C@@H]([C@H](C)O)n3cc(C)nn3)CC2)n1")
"6.55 µM"
>>> value_measured("O=C(N/N=C/c1sc2ccccc2c1O)c1cccc2ccccc12")
"4.8 µM"

Input: Query (compound): Cn1nccc1C(=O)NC1CCCc2c1cnn2-c1ccc(C(C)(C)C)cc1 (centres undefined) ; field requested: AC50
Output: 2.11 µM

Input: Here is the next compound: O=C(/C(=C/c1cccc(Cl)c1)c1nc2ccccc2[nH]1)c1ccccc1
Output: 4.36 µM

Input: Thanks! And C/C(=N\NC(=O)COc1ccccc1-c1ccccc1)c1ccccn1 ?
Output: 6.13 µM

Input: Now this one: COc1ccc(/C=C/c2cc(-c3ccc(C)cc3)o[n+]2C)cc1
Output: 0.91 µM

---

# System: INS-1E rat beta cells, no cytokines, CellTiter-Glo ATP, 48 h
# procedure-details: cytokine-free beta-cell viability effect – INS-1E rat cells, ATP luminescence, cherry pick, counter-screen for beta-cell apoptosis protection project, dose response (AID 463229)
metric-name: AC50

>>> value_measured("Nc1ccc(Br)cc1-c1nc2ccccc2[nH]c1=O")
"1.32 µM"
>>> value_measured("Cc1ccc(C(C)C)c(OCC(O)CN2CCc3ccccc3C2)c1 (stereo unspecified)")
"9.7 µM"
>>> value_measured("Cc1cccnc1CN1CCN(C(=O)c2cc(COc3ccc4ncccc4c3)on2)CC1")
"5.44 µM"
>>> value_measured("O=C(CN1CCCc2ccccc21)N/N=C/c1ccccc1O")
"15 µM"
>>> value_measured("COc1ccc(C2=NNC(=Nc3cc(S(=O)(=O)N(C)C)ccc3C)SC2)c(OC)c1")
"3.06 µM"

Moving on to the next molecule.
Input: Which measured AC50 value corresponds to COc1ccc2[nH]c3c(C)c4ccncc4c(C)c3c2c1 ?
Output: 4.13 µM

---

# reported AC50; entries follow
# Tested on: INS-1E rat beta cells, no cytokines, CellTiter-Glo ATP, 48 h
# procedure-details: cytokine-free beta-cell viability effect – INS-1E rat cells, ATP luminescence, cherry pick, counter-screen for beta-cell apoptosis protection project, dose response (AID 463229)

# annotated cases, reported AC50 shown
>>> value_measured("COc1cccc(/C=N/NC(=O)c2ccc(-c3ccccc3)cc2)c1O")
"13.1 µM"
>>> value_measured("FC(F)(F)c1cnc(NNC(=S)Nc2ccccc2Cl)c(Cl)c1")
"7.03 µM"
>>> value_measured("Cc1ccc(S(=O)(=O)Nc2ccccc2C(=O)Nc2nc(-c3ccc(F)cc3)cs2)cc1")
"2.92 µM"
>>> value_measured("CC(C)Oc1ccc(S(=O)(=O)N2CCCCC2)cc1NC(=O)CN1CCCC1c1cccs1 (stereo unspecified)")
"6.59 µM"
>>> value_measured("COc1cc(N/N=C/c2ccccc2O)ncn1")
"16.2 µM"

Turning now to a further compound:
Input: For INS-1E rat beta cells, no cytokines, CellTiter-Glo ATP, 48 h, provide AC50 of COc1cc(-c2nc3ccc(C)cn3c2NCc2ccccc2)ccc1SC1CCCCC1 please.
Output: 5.49 µM

All values here come from PubChem BioAssay AID463229.
